Recorded values, source paper PMC7463734.

- assay.target: RBD1 of MSI1 (Homo sapiens, UniProt O43347)
- Construct: made in house; host or cells: Escherichia coli
- Sequence (O43347 20-107): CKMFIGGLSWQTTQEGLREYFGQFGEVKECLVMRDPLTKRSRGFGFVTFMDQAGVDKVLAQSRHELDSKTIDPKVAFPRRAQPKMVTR
- experiment.summary: FP dose-response (competition) disrupting RBD1-Numb^FITC complex
- Assay type: binding
measured.quantity: pIC50
Bear in mind: pIC50 is minus log10 of a mol/L concentration; give just that figure.

Exercise: Recorded pIC50 for CC[C@H](C)/C=C(C)/C=C/C1=CC2=C(Cl)C(=O)C(C)(O)C(=O)C2=CO1 (stereo partly shown) [Aza-12] , please?
Solution: 5.20

###

- assay.target: RBD1 of MSI1 (Homo sapiens)
- Construct: made in house; host or cells: Escherichia coli
- experiment.summary: FP dose-response (competition) disrupting RBD1-Numb^FITC complex
- Format: binding
- stated.conditions: calculated based on the Kd and the dose-response curves; read-out: Ki
measured.quantity: pKi
Bear in mind: pKi is minus log10 of a mol/L concentration; give just that figure.

Exercise: Recorded pKi for CC[C@H](C)/C=C(C)/C=C/C1=CC2=CC(=O)C(C)(O)C(=O)C2=CO1 (some centres unmarked) , please?
Solution: 5.77

Exercise: Recorded pKi for CC[C@H](C)/C=C(C)/C=C/C1=CC2=C(Cl)C(=O)C(C)(OC(C)=O)C(=O)C2=CO1 (some centres unmarked) , please?
Solution: 5.77

Exercise: Recorded pKi for CC[C@H](C)/C=C(C)/C=C/C1=CC2=C(Br)C(=O)C(C)(O)C(=O)C2=CO1 (some centres unmarked) , please?
Solution: 5.72

Exercise: Recorded pKi for CC[C@H](C)/C=C(C)/C=C/C1=CC2=C(Cl)C(=O)[C@](C)(OC(C)=O)C(=O)C2=CO1 , please?
Solution: 5.52

Exercise: Recorded pKi for CC[C@H](C)/C=C(C)/C=C/C1=CC2=C(Br)C(=O)C(C)(OC(C)=O)C(=O)C2=CO1 (some centres unmarked) , please?
Solution: 5.92
